Test: inhibitors of TNFa-induced NFkB p65 translocation, primary screen, imaging, HUVEC, MLSMR starter and 10KST1 sets (AID 438);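 note: compound added about 3h40 before a 20 min TNFalpha stimulation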
Conditions: HUVEC TNFa-induced p65 nuclear translocation; measured here: nuclei count (cytotoxicity indicator), at 2.08 µM
Reported cell count is given for each of the following compounds.
Please reply with the number alone, leaving off any unit.

Solved cases below.
[
  {
    "compound": "C=CCn1c(=O)c(C(=O)Nc2ccccc2C(=O)OCC)c(O)c2ccccc21",
    "readout value": 495
  },
  {
    "compound": "COc1cc(C(=O)OC(C)CN2CCCC2)cc(OC)c1OC (configuration not stated)",
    "readout value": 286
  }
]

Prompt: Endpoint output: cell count of `O=C(c1cc(S(=O)(=O)N2CCOCC2)ccc1F)N1CCCc2ccccc21` . Value?
Response: 555

Prompt: Which cell count value belongs to `Cc1cc(Nc2ccccc2N2CCOCC2)n2ncnc2n1` ?
Response: 226

Prompt: Please look up its cell count: `O=S(=O)(c1ccccc1)N(Cc1nc(-c2ccccc2)no1)C1CCCCC1`
Response: 446

Prompt: # input compound: `COc1ccc(CCNC(=O)C2=COCCO2)cc1` ; wanted: its cell count
Response: 596

Prompt: Endpoint output: cell count of `COc1ccccc1C(=O)NCCNC(=O)c1ccco1` . Value?
Response: 388

Prompt: # lookup: cell count of O=C(NC1CCCC1)C1CCCN(S(=O)(=O)c2cccc3cccnc23)C1 (configuration not stated)
Response: 617

* * *

Assay: endothelial E-selectin expression blockers – imaging, HUVEC, immunofluorescence, MLSMR starter and 10KST1 sets, primary screen (AID 487);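 note: 100% = median nuclei count of all wells on the same plate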
Conditions: HUVEC TNFalpha-induced E-selectin immunofluorescence imaging, at 2 µM; measured here: cell number, toxicity
measurement name: nuclei count (%)
The answer is to be given in %; state only the numeric part.

[
  {
    "compound": "CCOC(=O)N1CCN(C(=O)c2n[nH]c(=O)c3ccccc23)CC1",
    "nuclei count (%)": 80.9
  }
]

Prompt: # input compound: CCCCCc1c(O)nc(SCC(=O)NCC2CCCO2)[nH]c1=O (configuration not stated) ; wanted: its nuclei count
Response: 111

Prompt: GET /values?readout=nuclei count&item= `CCCCNC(=O)CSc1nc2ccc(N3CCOCC3)cc2c(=O)n1CCc1ccccc1`
Response: 110

Prompt: Consider the compound CCOC(=O)C1CSC(CC(=O)Nc2ccc(Cl)cc2)C(=O)N1 (configuration not stated) and give its measured nuclei count.
Response: 132

Prompt: Any idea what nuclei count was measured for CCOC(=O)C1=C(C)N(C)C(=O)NC1c1cccc(O)c1 (configuration not stated) ?
Response: 124

Prompt: Param item = `O=C(c1ccco1)N1CCN(C2=NS(=O)(=O)c3ccccc32)CC1` ; retrieve measured nuclei count.
Response: 104

* * *

Listed below: NADPH fluorescence slope values for each entry.
Target: Voltage-gated potassium channel subunit beta-2 (Rattus norvegicus) (UniProt P62483)
Sequence (P62483 whole entry, looked up): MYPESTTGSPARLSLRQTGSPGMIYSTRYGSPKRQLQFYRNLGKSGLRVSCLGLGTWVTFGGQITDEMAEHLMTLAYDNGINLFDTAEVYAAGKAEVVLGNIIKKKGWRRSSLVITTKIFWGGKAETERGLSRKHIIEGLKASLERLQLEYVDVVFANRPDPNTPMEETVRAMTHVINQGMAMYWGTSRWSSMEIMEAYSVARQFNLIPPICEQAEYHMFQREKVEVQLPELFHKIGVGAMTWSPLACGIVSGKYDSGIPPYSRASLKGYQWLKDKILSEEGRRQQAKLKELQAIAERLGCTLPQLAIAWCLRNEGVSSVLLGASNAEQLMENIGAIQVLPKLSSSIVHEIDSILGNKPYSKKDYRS
Assay: enhancers of rat Kvbeta2 NADPH turnover – biochemical, NADPH fluorescence, primary screen (AID 623);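 note: fluorescence intensity change per second fitted from 20 to 320 s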
Details: Recombinant KvBeta, NADPH fluorescence decrease slope, 10 min; at 10 µM; stronger effect = lower value
The answer should be a number; do not append a unit.

[
  {
    "compound": "CC(C)[C@H](NC(=O)NC1CCCC1)C(=O)O",
    "readout value": "2e-05"
  },
  {
    "compound": "CCOCC(=O)Nc1nc2c(s1)C(=O)CC(C)(C)C2",
    "readout value": "2.2e-05"
  },
  {
    "compound": "CC(=O)Nc1nc(=S)ss1",
    "readout value": "-2.6e-05"
  },
  {
    "compound": "Cc1cc(C(=O)NCCCN2CCN(C3CCCCC3)CC2)n(-c2ccccc2)n1",
    "readout value": "-2.7e-05"
  },
  {
    "compound": "COc1ccc(C(=O)c2ccc(OC)c(N)c2)cc1N",
    "readout value": "-7.4e-05"
  },
  {
    "compound": "COC(=O)CSc1nnc(-c2cccs2)n1-c1ccc(Cl)cc1",
    "readout value": "-1.6e-05"
  },
  {
    "compound": "CCCCn1nnc(NC(=O)Cc2ccc(Cl)cc2)n1",
    "readout value": "-6.8e-05"
  },
  {
    "compound": "Cc1onc(-c2c(Cl)cccc2Cl)c1C(=O)N1CCc2ccccc21",
    "readout value": "-3.1e-05"
  },
  {
    "compound": "Cc1nc(CNS(=O)(=O)c2cccc(F)c2)cs1",
    "readout value": "-3.7e-05"
  },
  {
    "compound": "O=C(CCc1nc2ccccc2s1)OCC(=O)N1CCN(C(=O)c2ccco2)CC1",
    "readout value": "-2.7e-05"
  }
]

Prompt: What value of NADPH fluorescence slope has been recorded for this entry: CC1=C(C(=O)Nc2ccccc2)C(c2cccs2)C(C#N)=C(SCC#N)N1 (stereo unspecified)
Response: -6.3e-05

Prompt: Need NADPH fluorescence slope, item `COC(=O)c1cn(NC(=O)c2cccnc2)c(=O)c2ccccc12`
Response: -6.1e-05

Prompt: Suppose we examine the compound `CC(C)(C)c1ccc(C(=O)Nc2cnccn2)cc1` ; what NADPH fluorescence slope value has been reported?
Response: -6.5e-05

Prompt: What value of NADPH fluorescence slope has been reported for the following compound? `CCSc1ccccc1C(=O)Nc1cccc(OC)c1`
Response: -8.4e-05

Prompt: // lookup NADPH fluorescence slope for Cc1cc2nc(C3CCN(CC4COc5ccccc5O4)CC3)[nH]c2cc1C (stereo unspecified)
Response: -1.9e-05

Prompt: Using the record for `Cn1c(SCC(=O)Nc2cccc3ccccc23)nc(O)cc1=O` , report its NADPH fluorescence slope.
Response: -4.6e-05

Prompt: I have this compound here, Cc1ccc(C(c2nnnn2CCC(C)C)N2CCN(C)CC2)cc1 (stereo unspecified) , and I need its recorded NADPH fluorescence slope.
Response: -4.8e-05

Prompt: Sample `Cc1ccc(OCc2nnc(SCC(=O)N3CCOCC3)n2C)cc1` — what was its NADPH fluorescence slope?
Response: -1.9e-05

Prompt: Entry `O=C(Nc1ccncc1)C1c2ccccc2Oc2ccccc21` has what NADPH fluorescence slope?
Response: -1e-05

Prompt: Give the measured NADPH fluorescence slope of `Cc1cc(C)nc(SCC(=O)Nc2ccc(S(=O)(=O)Nc3nccs3)cc2)n1` .
Response: -5.8e-05
